# SYSTEM_UNDER_TEST: murine Abcg2 (Mus musculus)
# Sequence (Q7TMS5 whole entry): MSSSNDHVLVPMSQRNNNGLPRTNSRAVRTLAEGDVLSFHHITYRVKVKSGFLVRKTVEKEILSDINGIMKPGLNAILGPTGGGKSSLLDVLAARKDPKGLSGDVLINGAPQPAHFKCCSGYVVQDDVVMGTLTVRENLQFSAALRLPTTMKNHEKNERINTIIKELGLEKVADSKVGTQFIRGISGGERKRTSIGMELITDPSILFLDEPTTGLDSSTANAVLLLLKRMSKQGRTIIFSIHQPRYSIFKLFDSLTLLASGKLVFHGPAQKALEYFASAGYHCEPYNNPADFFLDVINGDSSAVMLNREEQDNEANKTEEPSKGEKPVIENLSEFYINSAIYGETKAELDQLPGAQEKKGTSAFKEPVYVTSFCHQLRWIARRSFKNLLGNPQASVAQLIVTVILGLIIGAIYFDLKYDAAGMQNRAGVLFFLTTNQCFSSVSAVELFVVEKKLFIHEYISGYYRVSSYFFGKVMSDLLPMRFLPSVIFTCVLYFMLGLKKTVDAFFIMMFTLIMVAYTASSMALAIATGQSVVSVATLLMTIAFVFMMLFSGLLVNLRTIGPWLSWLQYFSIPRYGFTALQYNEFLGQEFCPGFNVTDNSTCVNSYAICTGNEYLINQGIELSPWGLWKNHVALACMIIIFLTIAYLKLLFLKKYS
# EXPERIMENT_DESCRIPTION: Transepithelial transport in monolayers of MDCKII cells over-expressing Abcg2
# Format: in vitro ADME
# TEST_CONDITIONS: MDCKII over-expressing Abcg2, after 4h, 5 μM (compound 8: 1 μM)
MEASUREMENT_LABEL: B to A transport (percentage of drug appearing in the opposite compartment) (%)
Your answer is read as %, so omit the unit and give the number.

| SMILES_NOTATION | SYSTEM_UNDER_TEST | UNIT_ANNOTATION | RECORDED_VALUE |
| --- | --- | --- | --- |
| NC(=O)c1cccc(-c2cc(OC(=O)NC3CCCCC3)ccc2O)c1 | murine Abcg2 (Mus musculus) | % | 25.9 |

What measured B to A transport (percentage of drug appearing in the opposite compartment) goes with "Cc1ccc(OC(=O)NC2CCCCC2)cc1-c1cccc(C(N)=O)c1" ?
64.8

Which B to A transport (percentage of drug appearing in the opposite compartment) is listed for "CN(C)C(=O)c1cccc(-c2cc(OC(=O)NC3CCCCC3)ccc2O)c1" ?
91.0

---

# SYSTEM_UNDER_TEST: human ABCB1 (Homo sapiens, UniProt P08183)
# Sequence (P08183 whole entry): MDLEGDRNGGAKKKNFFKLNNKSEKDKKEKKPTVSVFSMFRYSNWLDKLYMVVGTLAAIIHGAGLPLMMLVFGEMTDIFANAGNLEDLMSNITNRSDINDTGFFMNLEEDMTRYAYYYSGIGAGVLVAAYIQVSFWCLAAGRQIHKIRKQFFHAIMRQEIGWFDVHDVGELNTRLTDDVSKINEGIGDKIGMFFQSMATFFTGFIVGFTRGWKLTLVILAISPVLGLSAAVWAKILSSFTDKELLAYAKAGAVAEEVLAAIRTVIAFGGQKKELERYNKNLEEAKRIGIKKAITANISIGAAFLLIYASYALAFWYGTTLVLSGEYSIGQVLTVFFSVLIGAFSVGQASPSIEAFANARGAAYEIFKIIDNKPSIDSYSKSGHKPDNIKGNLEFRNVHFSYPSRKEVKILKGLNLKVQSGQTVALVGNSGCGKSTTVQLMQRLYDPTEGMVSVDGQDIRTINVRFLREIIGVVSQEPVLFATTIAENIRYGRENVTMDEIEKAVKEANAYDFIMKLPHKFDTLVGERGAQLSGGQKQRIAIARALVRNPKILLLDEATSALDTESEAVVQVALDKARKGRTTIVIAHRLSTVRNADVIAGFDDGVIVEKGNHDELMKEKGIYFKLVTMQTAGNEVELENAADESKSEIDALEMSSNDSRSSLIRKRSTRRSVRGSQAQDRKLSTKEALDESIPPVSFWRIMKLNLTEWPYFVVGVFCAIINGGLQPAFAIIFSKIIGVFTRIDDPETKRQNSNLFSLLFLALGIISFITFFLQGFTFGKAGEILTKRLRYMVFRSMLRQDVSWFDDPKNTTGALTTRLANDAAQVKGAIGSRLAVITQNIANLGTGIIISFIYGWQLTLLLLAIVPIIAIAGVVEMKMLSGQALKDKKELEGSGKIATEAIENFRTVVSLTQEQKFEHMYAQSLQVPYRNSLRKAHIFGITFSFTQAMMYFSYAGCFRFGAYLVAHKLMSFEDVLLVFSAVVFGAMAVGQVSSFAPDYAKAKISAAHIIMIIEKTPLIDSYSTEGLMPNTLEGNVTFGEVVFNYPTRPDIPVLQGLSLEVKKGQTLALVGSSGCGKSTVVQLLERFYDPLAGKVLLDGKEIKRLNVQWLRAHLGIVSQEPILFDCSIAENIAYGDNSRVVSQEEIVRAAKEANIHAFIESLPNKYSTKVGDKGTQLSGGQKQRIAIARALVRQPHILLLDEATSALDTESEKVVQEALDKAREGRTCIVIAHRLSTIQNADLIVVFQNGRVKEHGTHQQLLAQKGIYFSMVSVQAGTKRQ
# EXPERIMENT_DESCRIPTION: Transepithelial transport in monolayers of MDCKII cells over-expressing ABCB1
# TEST_CONDITIONS: MDCKII over-expressing ABCB1, after 4h, 5 μM (compound 8: 1 μM)
Measured A to B transport (percentage of drug appearing in the opposite compartment) accompanies every entry in the list below.
Write the numeric value and append its unit.

Example entries begin here.
| SMILES_NOTATION | RECORDED_VALUE |
| --- | --- |
| CC(=O)c1cccc(-c2cc(OC(=O)NC3CCCCC3)ccc2O)c1 | 39.8 ± 1.88% |
| Cc1ccc(OC(=O)NC2CCCCC2)cc1-c1cccc(C(N)=O)c1 | 20.7 ± 1.00% |
| NC(=O)c1cccc(-c2cc(OC(=O)NC3CCCCC3)ccc2O)c1 | 5.89 ± 1.33% |
| CNC(=O)c1cccc(-c2cc(OC(=O)NC3CCCCC3)ccc2O)c1 | 8.55 ± 1.79% |

Entry under review: "CN(C)C(=O)c1cccc(-c2cc(OC(=O)NC3CCCCC3)ccc2O)c1" . Reported A to B transport (percentage of drug appearing in the opposite compartment)?
8.86 ± 0.95%

Fill blank: measured A to B transport (percentage of drug appearing in the opposite compartment) of the molecule "COc1ccc(OC(=O)NC2CCCCC2)cc1-c1cccc(C(N)=O)c1" is ____.
21.6 ± 0.55%

---

Listed molecules paired with reported efflux ratio at 4 h
# EXPERIMENT_DESCRIPTION: Transepithelial transport in monolayers of wild-type MDCKII cells
# TEST_CONDITIONS: dog, MDCK, Ratio BA/AB (relative transport ratio), after 4h, 5 μM (compound 8: 1 μM)

| SMILES_NOTATION | efflux ratio at 4 h |
| --- | --- |
| Cc1ccc(OC(=O)NC2CCCCC2)cc1-c1cccc(C(N)=O)c1 | ~1 |

Let us move to another entry and its efflux ratio at 4 h.
Would you mind telling me what efflux ratio at 4 h value was observed for "NC(=O)c1cccc(-c2cc(OC(=O)NC3CCCCC3)ccc2O)c1" ?
≥ 2
